Origin of measurements: patent US20260242478A1

Target: T1, anti-CD28 scFv (VH - linker 1 - VL) (biotinylated (site not stated))
T1 construct: Captured as biotinylated scFv on neutravidin coated plates in the clonal phage ELISA
T1 sequence (scFv, as listed by the source): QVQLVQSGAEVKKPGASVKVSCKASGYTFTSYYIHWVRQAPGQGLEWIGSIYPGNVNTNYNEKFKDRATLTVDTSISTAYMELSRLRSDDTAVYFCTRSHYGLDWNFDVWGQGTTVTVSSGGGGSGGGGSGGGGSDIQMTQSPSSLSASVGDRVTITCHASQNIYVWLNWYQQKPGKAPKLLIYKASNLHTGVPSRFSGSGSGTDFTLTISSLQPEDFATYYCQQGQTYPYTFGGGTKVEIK
Assay: clonal phage ELISA; biotinylated anti-CD28 scFv on neutravidin plate, anti-M13-HRP detection;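 note: crude supernatants of phage clones were tested in wells pretreated with blocking buffer either alone or supplemented with soluble CD28 protein before phage addition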
Each record here notes measured CD28 scFv signal.
Measurement Kind: CD28 scFv signal

binder="MDWCPRDMWDQCFD (tested as crude clonal phage supernatant) [Phage-201]" reported=2.29
binder="MDWCPRDQWHNCFN (tested as crude clonal phage supernatant) [Phage-222]" reported=0.2
binder="MDWCPWDMWDKCFN (tested as crude clonal phage supernatant) [Phage-217]" reported=0.586
binder="MDWCPRYMWNECFN (tested as crude clonal phage supernatant) [Phage-215]" reported=0.687
